tested on: Proteus vulgaris; test: Antimicrobial activity against Proteus vulgaris; type: functional
readout name: log10 MIC (log10 of the value in µg/mL)

1) CCCCC[C@@H](C)COC(=O)c1ccncc1 [ISONICOTINIC ACID 2-METHYL-HEPTYL ESTER] : 0.78
2) CCCCCCCCCCCCCCCCCCOC(=O)c1ccncc1 [ISONICOTINIC ACID OCTADECYL ESTER] : 2.75
3) CCCCC[C@H](C)COC(=O)c1ccncc1 [(S)-2-METHYLHEPTYL ISONICOTINATE] : 1.15
4) CCCCCCOC(=O)c1ccncc1 [ISONICOTINIC ACID HEXYL ESTER] : 1.56
5) CCCCCCCOC(=O)c1ccncc1 [ISONICOTINIC ACID HEPTYL ESTER] : 1.20
6) CCCCCCCCOC(=O)c1ccncc1 [ISONICOTINIC ACID OCTYL ESTER] : 0.78
7) CCCCOC(=O)c1ccncc1 [ISONICOTINIC ACID BUTYL ESTER] : 2.70
8) CCCCCOC(=O)c1ccncc1 [ISONICOTINIC ACID PENTYL ESTER] : 1.15
